System: IL-6
ASSAY_SUMMARY: THP-1 AlphaLISA IL-6 cytokine assay
Format: cell-based
MEASUREMENT_CONTEXT: Homo sapiens, THP-1, differentiated THP-1 cells, LPS 24 hr then Nigericin 1 hour
MEASURED_ATTRIBUTE: IC50

C=C(CC(=O)OCc1ccc(C(F)(F)F)cn1)C(=O)O [Example 56]    > 100 µM
C=C(CC(=O)OC1(C#Cc2ccc(C(F)(F)F)cc2)CCC1)C(=O)O [Example 60]    34.1 µM
C=C(CC(=O)OC1(c2ccc(C(F)(F)C(F)(F)F)cc2)CCC1)C(=O)O [Example 31]    > 100 µM
C=C(CC(=O)OC1(c2ccc3cc(Br)ccc3c2)CCC1)C(=O)O [Example 54]    18.1 µM
C=C(CC(=O)OC1(c2ccc(C(F)(F)F)cc2)CC(C)C1)C(=O)O (single isomer, unassigned) [Example 44]    > 100 µM
C=C(CC(=O)OC1(c2ccc(SC(F)(F)F)cc2)CCC1)C(=O)O [Example 9]    > 100 µM
C=C(CC(=O)OC(C)(C)c1ccc(C(F)(F)F)cn1)C(=O)O [Example 57]    > 31.6 µM
C=C(CC(=O)O[C@]1(c2ccc(C(F)(F)F)cc2)C[C@H](OC)C1)C(=O)O [Example 42]    > 31.6 µM
C=C(CC(=O)OC1(c2ccc(C(F)(F)c3ccccc3)cc2)CCC1)C(=O)O [Example 28]    19.6 µM
C=C(CC(=O)OC1(c2ccc(C(F)(F)F)nn2)CCC1)C(=O)O [Example 62]    > 31.6 µM

Turning to the following compound.
Determine from records and report IC50 for C=C(CC(=O)OC1(c2ccc(C(F)(F)F)cc2)CCOCC1)C(=O)O [Example 47]
> 100 µM
